Can you tell me pIC50 for the items I'm about to list?
test system: BT-474 human mammary gland ductal carcinoma cells; assay: Inhibitory response of test compounds against BT-474 cells (Cell Titer-Glo, 72 h); assay type: cell-based; settings: Homo sapiens
pIC50: −log10 of the molar value. Numbered stars: 1 amine (or outer) side, 2 acyl side, 3 side chain; on linkers, the order of the positions; unused ones are H or OH. Bridge positions count the residues as written; N and C are the ends. Square brackets hold non-standard residues; d marks the D form. Peptide text beside a SMILES is read from it. ξ: configuration not given here. X3 = C/C=C(\C)[C@@H](O[*:2])[C@@H](C)[C@@H](O)C/C=C(\C)C(=O)[*:1]; X7 = C/C(=C\CCC[C@H](O[*:2])C(C)C)C(=O)[*:1]; X5 = C/C(=C\CC[C@H](C)CO[*:2])C(=O)[*:1]; dNMeF = CN[C@H](Cc1ccccc1)C(=O)O; Ile(3ξ) = CCC(C)[C@H](N)C(=O)O; dHica = CC(C)C[C@@H](O)C(=O)O; Sar = CNCC(=O)O

CCC(C)[C@@H]1NC(=O)CN(C)C(=O)[C@@H](Cc2ccccc2)N(C)C(=O)[C@H](C)NC(=O)[C@@H](CC(C)C)OC(=O)/C(C)=C/CC[C@H](C)COC(=O)[C@@H](C)NC1=O (stereo partly shown) [Compound 91] ([dHica]A[dNMeF][Sar][Ile(3ξ)][dA]; linker N-C via X5): 5.00 to 6.70
C/C=C(\C)[C@H]1OC(=O)[C@@H](C)NC(=O)[C@H]([C@H](C)CC)NC(=O)CN(C)C(=O)[C@@H](Cc2ccc(Cl)cc2)N(C)C(=O)[C@H](CCCCN)NC(=O)[C@@H](CC(C)C)OC(=O)/C(C)=C/CC[C@@H]1C: 5.00 to 6.70
C/C=C(\C)[C@H]1OC(=O)[C@@H](C)NC(=O)[C@H]([C@H](C)CC)NC(=O)CN(C)C(=O)[C@@H](Cc2ccccc2)N(C)C(=O)[C@H](C)NC(=O)[C@@H](CC(C)C)OC(=O)/C(C)=C/C[C@H](OC(=O)NCCCOCCOCCOCCCNC(=O)OC(C)(C)C)[C@@H]1C: > 7.70
C/C=C(\C)[C@H]1OC(=O)[C@@H](C)NC(=O)[C@H](C(C)CC)NC(=O)CN(C)C(=O)[C@@H](Cc2ccccc2)N(C)C(=O)[C@H](C)NC(=O)[C@@H](CC(C)C)OC(=O)/C(C)=C/C[C@H](OC(=O)NCCO)[C@@H]1C (stereo partly shown): > 7.70
CCC(C)[C@@H]1NC(=O)CN(C)C(=O)[C@@H](Cc2ccccc2)N(C)C(=O)[C@H](C)NC(=O)[C@@H](CC(C)C)OC(=O)/C(C)=C/CCC[C@@H](C(C)C)OC(=O)[C@@H](C)NC1=O (stereo partly shown) [Compound 86] ([dHica]A[dNMeF][Sar][Ile(3ξ)][dA]; linker N-C via X7): 5.00 to 6.70

List reported pIC50 for each of these compounds:
1. C/C=C(\C)[C@H]1OC(=O)[C@@H](C)NC(=O)[C@H](C(C)CC)NC(=O)CN(C)C(=O)[C@@H](Cc2ccccc2)N(C)C(=O)[C@H](C)NC(=O)[C@@H](CC(C)C)OC(=O)/C(C)=C/C[C@H](CC(=O)NCCCCCCN)[C@@H]1C (stereo partly shown)
2. C/C=C(\C)[C@H]1OC(=O)[C@@H](C)NC(=O)[C@H](C(C)CC)NC(=O)CN(C)C(=O)[C@@H](Cc2ccccc2)N(C)C(=O)[C@H](C)NC(=O)[C@@H](Cc2ccccc2)NC(=O)/C(C)=C/C[C@H](O)[C@@H]1C (stereo partly shown) [Compound 64] ([dF]A[dNMeF][Sar][Ile(3ξ)][dA]; linker N-C via X3)

Reply |
> 7.70
> 7.70
